Cited source: patent US7504391B2

- tested.target: human D1 receptors (Homo sapiens, UniProt P21728)
- Construct: expressed in transfected cells; host or cells: Ltk- cells (mouse fibroblasts); membrane preparation
- Sequence (P21728 whole entry): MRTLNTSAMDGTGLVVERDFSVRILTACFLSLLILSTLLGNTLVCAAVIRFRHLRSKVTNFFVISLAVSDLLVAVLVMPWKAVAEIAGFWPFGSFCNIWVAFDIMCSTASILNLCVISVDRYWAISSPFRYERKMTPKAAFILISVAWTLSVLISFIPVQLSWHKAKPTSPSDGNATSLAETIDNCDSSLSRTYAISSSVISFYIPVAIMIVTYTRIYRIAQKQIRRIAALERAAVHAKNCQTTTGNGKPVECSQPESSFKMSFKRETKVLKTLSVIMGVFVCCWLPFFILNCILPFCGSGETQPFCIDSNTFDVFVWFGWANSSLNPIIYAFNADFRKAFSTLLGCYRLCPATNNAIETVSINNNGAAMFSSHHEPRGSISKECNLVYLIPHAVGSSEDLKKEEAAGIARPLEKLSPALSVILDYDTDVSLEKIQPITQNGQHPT
- test.protocol: Radioligand binding competition assay at D1 receptor
- condition: class by Ki (D1) and selectivity (Ki D2 / Ki D1); human D1 and D2 (long variant) receptors, Ltk- cell membranes; read-out: D1 binding and D2:D1 Selectivity
pKi: −log10 of the molar value.
outcome.measure: pKi

A selection of reference data follows.
molecule | pKi
CN1CCc2cc(Cl)c(O)cc2C(c2ccc(CN(C)S(=O)(=O)c3ccccc3)cc2)C1 (stereo not drawn) | > 8.30
CC(NC(=O)c1ccc(C2CN(C)CCc3cc(Cl)c(O)cc32)cc1)c1ccccc1 (stereo not drawn) | 7.30 to 8.00

Recorded pKi (molecule CN1CCc2cc(Cl)c(O)cc2C2c3cccc(C(=O)NCc4cccnc4)c3CCC21 (stereo not drawn) ): > 8.00

Recorded pKi (molecule CN1CCc2cc(Cl)c(O)cc2[C@H]2c3ccc(N(C)S(C)(=O)=O)cc3CC[C@@H]21 ): > 8.30

Recorded pKi (molecule CN1CCc2cc(Cl)c(O)cc2[C@H]2c3ccc(NC(=O)C4CC4)cc3CC[C@@H]21 ): > 8.30

Recorded pKi (molecule CC(C)NC(=O)N(Cc1ccc2c(c1)[C@@H]1c3cc(O)c(Cl)cc3CCN(C)[C@H]1CC2)c1ccccc1 ): > 7.00

Recorded pKi (molecule CN1CCc2cc(Cl)c(O)cc2C2c3cccc(C(=O)NCc4ccccn4)c3CCC21 (stereo not drawn) ): > 8.00

Recorded pKi (molecule CN1CCc2cc(Cl)c(O)cc2C(c2ccc(NS(C)(=O)=O)cc2)C1 (stereo not drawn) ): > 8.30

Recorded pKi (molecule CN(C)C(=O)c1cccc2c1CCC1C2c2cc(O)c(Cl)cc2CCN1C (stereo not drawn) ): > 8.00

====

Below, each entry is listed alongside its reported Ki.
- tested.target: human D1 receptors (Homo sapiens)
- Construct: expressed in transfected cells; host or cells: Ltk- cells (mouse fibroblasts); membrane preparation
- test.protocol: Radioligand binding competition assay at D1 receptor

compound | outcome.measure | result
CN1CCc2cc(Cl)c(O)cc2[C@H]2c3ccc(NS(=O)(=O)N(C)C)cc3CC[C@@H]21 [19b32] | Ki | < 0.005 µM

Recorded Ki (compound CCCS(=O)(=O)Nc1ccc2c(c1)CC[C@H]1[C@H]2c2cc(O)c(Cl)cc2CCN1C [19b23] ): < 0.005 µM

Recorded Ki (compound CN1CCc2cc(Cl)c(O)cc2[C@H]2c3ccc(NC(=O)C4CCCC4)cc3CC[C@@H]21 [18a6] ): < 0.005 µM

Recorded Ki (compound CN1CCc2cc(Cl)c(O)cc2[C@H]2c3cccc(NS(=O)(=O)c4ccc(F)cc4)c3CC[C@@H]21 [19a6] ): < 0.01 µM

Recorded Ki (compound CCNC(=O)Nc1ccc2c(c1)CC[C@H]1[C@H]2c2cc(O)c(Cl)cc2CCN1C [20b6] ): < 0.005 µM

Recorded Ki (compound CCS(=O)(=O)Nc1ccc2c(c1)CC[C@H]1[C@H]2c2cc(O)c(Cl)cc2CCN1C [19b5] ): < 0.005 µM

Recorded Ki (compound CN1CCc2cc(Cl)c(O)cc2[C@H]2c3cccc(NC(=O)N4CCCC4)c3CC[C@@H]21 [20a7] ): < 0.005 µM

Recorded Ki (compound CN1CCc2cc(Cl)c(O)cc2[C@H]2c3cccc(NC(=O)c4cccc5ccccc45)c3CC[C@@H]21 [18b15] ): 0.01 to 0.05 µM

Recorded Ki (compound COc1ccc(OC(=O)Nc2cccc3c2CC[C@H]2[C@H]3c3cc(O)c(Cl)cc3CCN2C)cc1 [24b2] ): < 0.005 µM

Recorded Ki (compound CN1CCc2cc(Cl)c(O)cc2[C@H]2c3ccc(NCC4CCCC4)cc3CC[C@@H]21 [21a2] ): < 0.005 µM

Recorded Ki (compound CN1CCc2cc(Cl)c(O)cc2[C@H]2c3cccc(NC(=O)Nc4cc(Cl)nc(Cl)c4)c3CC[C@@H]21 [20a33] ): 0.01 to 0.05 µM

Recorded Ki (compound CN1CCc2cc(Cl)c(O)cc2[C@H]2c3ccc(NC(=O)CC4CC4)cc3CC[C@@H]21 [18a8] ): < 0.01 µM

Recorded Ki (compound CN1CCc2cc(Cl)c(O)cc2[C@H]2c3ccc(NS(=O)(=O)c4cccc(C#N)c4)cc3CC[C@@H]21 [19b24] ): < 0.01 µM

Recorded Ki (compound CN(C)C(=O)Nc1cccc2c1CC[C@H]1[C@H]2c2cc(O)c(Cl)cc2CCN1C [20a8] ): < 0.005 µM

Recorded Ki (compound CC(=O)Nc1ccc2c(c1)CC[C@H]1[C@H]2c2cc(O)c(Cl)cc2CCN1C [18a4] ): < 0.01 µM

Recorded Ki (compound CN1CCc2cc(Cl)c(O)cc2[C@H]2c3cc(S(=O)(=O)NCc4ccccc4)ccc3CC[C@@H]21 [15l] ): 0.01 to 0.05 µM

Recorded Ki (compound CN1CCc2cc(Cl)c(O)cc2[C@H]2c3ccc(NC(=O)Nc4ccccc4Cl)cc3CC[C@@H]21 [20b5] ): < 0.01 µM
